- protocol_summary: in vitro
- Assay type: in vitro ADME
- measurement_setup: not told; read-out: Permeability according to examples
assay_metric: Papp (×10⁻⁶ cm/s)

>>> measurement("Cc1cc(=O)n(-c2ccccc2)n1C [Antipyrine]")
200

* * *

- protocol_summary: in vitro
- measurement_setup: PAMPA
assay_metric: Papp (×10⁻⁶ cm/s)

>>> measurement("CC(=O)Nc1ccc(O)cc1")
3.5

* * *

- protocol_summary: in vitro
- Format: in vitro ADME
- measurement_setup: not told; DOPC lipid bilayer; organic phase 1:1 (v/v) squalane and silicone oil (AR20); 1 μl donor droplet; real-time UV absorbance of stirred acceptor water layer; read-out: Permeability according to examples
assay_metric: Papp (×10⁻⁶ cm/s)

>>> measurement("CN/C(=N/CCSCc1nc[nH]c1C)NC#N")
7.2
>>> measurement("Cn1c(=O)c2c(ncn2C)n(C)c1=O")
248
>>> measurement("CC(=O)Nc1ccc(O)cc1")
113
